Target: ETS1 (UniProt P14921)
Sequence: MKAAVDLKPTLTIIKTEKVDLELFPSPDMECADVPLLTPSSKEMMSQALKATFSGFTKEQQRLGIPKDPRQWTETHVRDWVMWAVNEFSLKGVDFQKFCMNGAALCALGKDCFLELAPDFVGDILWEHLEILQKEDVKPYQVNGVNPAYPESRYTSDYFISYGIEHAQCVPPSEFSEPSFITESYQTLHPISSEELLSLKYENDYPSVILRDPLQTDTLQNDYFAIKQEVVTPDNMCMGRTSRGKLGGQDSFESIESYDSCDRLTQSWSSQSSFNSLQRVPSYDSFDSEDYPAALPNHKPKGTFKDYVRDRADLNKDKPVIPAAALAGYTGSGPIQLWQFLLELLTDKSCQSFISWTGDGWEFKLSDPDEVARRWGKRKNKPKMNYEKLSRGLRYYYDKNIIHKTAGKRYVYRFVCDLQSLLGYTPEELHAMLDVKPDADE
Test: ETS1 binding intensity (PBM fluorescence) in presence of RUNX1, normalised to ETS1-only experiment (arbitrary fluorescence units); higher = stronger binding
Conditions: ETS1 concentration 1 nM; RUNX1 concentration 25 nM
Catalogue of sequences with associated ETS1 binding intensity
measurement-kind: ETS1 binding intensity

seq-text: GTTCCTAGGCAGGCAGGATGTGGCTATAAGCTACAT
test-result: 6220
--
seq-text: AAACCCTGAGTAATCGGAAGTGGTTAGGAGTGAGAG
test-result: 6580
--
seq-text: TGGCTGTCACTTCCTGTCCCACTGTGGTTCCTGGGA
test-result: 5740
--
seq-text: GGCTGCGACTTCCGGACTGCTCCTGGCCGCAGGGGG
test-result: 2500
--
seq-text: GCGACCCGACCCGGCGGAAACCACCTCGACAGCCTC
test-result: 1000
--
seq-text: GGTGGCCGCCGGAAGTGTGACCGCGGGAGGGGAGTG
test-result: 25500
--
seq-text: GCAGGGGCCCATTTCCTGCCACAAGCCCACACAGGA
test-result: 1280
--
seq-text: TTTGCACACATCCTGGCCTCCGCCTGACCACCTCCT
test-result: 586
--
seq-text: ACGTCTTTATTTATCCTGTGGCTTCCCGACCCCCAC
test-result: 576
--
seq-text: TGAGCTCAGGCCGGAAGCGGTGGATGATGGCACACA
test-result: 8670
--
seq-text: GAACCCCAAGTTCCGGCTGGCACTGCGGCGGAGCCT
test-result: 299
--
seq-text: GTGCTCCTCGCTTCCTCCGCGGTCTTCCGAGCGGTC
test-result: 365

###

Target: ETS1 (UniProt P14921)
Sequence: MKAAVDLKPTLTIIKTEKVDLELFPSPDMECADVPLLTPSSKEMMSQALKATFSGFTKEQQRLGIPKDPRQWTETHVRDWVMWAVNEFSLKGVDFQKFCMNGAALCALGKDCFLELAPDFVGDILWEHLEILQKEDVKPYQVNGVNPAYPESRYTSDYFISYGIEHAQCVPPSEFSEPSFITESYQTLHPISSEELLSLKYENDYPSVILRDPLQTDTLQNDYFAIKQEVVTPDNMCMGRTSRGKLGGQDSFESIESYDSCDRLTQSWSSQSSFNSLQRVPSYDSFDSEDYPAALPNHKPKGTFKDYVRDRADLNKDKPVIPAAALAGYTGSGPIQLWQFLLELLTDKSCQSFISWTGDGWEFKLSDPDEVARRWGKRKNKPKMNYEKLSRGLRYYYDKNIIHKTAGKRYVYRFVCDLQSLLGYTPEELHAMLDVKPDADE
Assay: ETS1 binding intensity (PBM fluorescence), ETS1 alone (arbitrary fluorescence units); higher = stronger binding
Settings: ETS1 concentration 1 nM; RUNX1 concentration 0 nM
Rule: Satisfied for ETS1 binding intensity not less than 1000, Not satisfied for anything less.

seq-text: TTTCTGACACTCTCAGGATGTGGGTTTTCACACTGT
cat: Satisfied
//
seq-text: ATCCCACTATAGGAAGCTTCTCTGTGGTTTTGAGCC
cat: Not satisfied
//
seq-text: AAACATCATAGGAAGTGGATTTTGTGGTGAGAGACA
cat: Satisfied
//
seq-text: CAACTTCCGGGGCCGGTTGCCTGGCAACCGCAGGAG
cat: Not satisfied
//
seq-text: CAGGTGTTCAGGAAACAAAACCACAGACTTTTTCAC
cat: Not satisfied
//
seq-text: GTTGAGTAGTGACAGGAAGTGACCGCAAGGGGGCGC
cat: Satisfied

###

biological target: RUNX1 (UniProt Q01196); experiment: RUNX1 binding intensity (PBM fluorescence), RUNX1 alone (arbitrary fluorescence units); higher = stronger binding; details: RUNX1 concentration 2 nM; ETS1 concentration 0 nM
Sequence (Q01196 whole entry): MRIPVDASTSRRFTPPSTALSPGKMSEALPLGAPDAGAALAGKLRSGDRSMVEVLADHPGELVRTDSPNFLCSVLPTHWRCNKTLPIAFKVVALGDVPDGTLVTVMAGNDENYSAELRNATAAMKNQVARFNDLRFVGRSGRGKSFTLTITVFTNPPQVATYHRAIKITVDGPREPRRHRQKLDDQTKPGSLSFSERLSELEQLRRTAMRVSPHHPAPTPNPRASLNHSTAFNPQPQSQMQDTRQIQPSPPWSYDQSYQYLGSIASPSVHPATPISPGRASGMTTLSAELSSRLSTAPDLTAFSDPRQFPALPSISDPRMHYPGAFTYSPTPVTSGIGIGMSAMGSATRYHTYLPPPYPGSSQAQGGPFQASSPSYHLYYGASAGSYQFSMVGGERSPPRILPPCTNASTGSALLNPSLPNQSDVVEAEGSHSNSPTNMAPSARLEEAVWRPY
Catalogue of sequences with associated RUNX1 binding intensity

seq-text: CTTCTACTTCCTGCCCCGCCCCCAGCTGTGGTCACA
RUNX1 binding intensity: 1490
//
seq-text: CAAGGAGGCTTCCTGCGTGGGGCCGCAGAGCGAGTC
RUNX1 binding intensity: 658
//
seq-text: GGCGGCACTAGGCTTCCGCCTCACCGCAGTGGGGTT
RUNX1 binding intensity: 855
//
seq-text: TTGCTCGGCTTCCTGGAGCTGTGGTCCGTGTGGGCT
RUNX1 binding intensity: 708
//
seq-text: AGAGCGAGGAGGACTTCCTGCGGCAGGTCGGCGTGA
RUNX1 binding intensity: 652
//
seq-text: TTACACAACAGGAAACTATGTTTAGCGGTTAATCCA
RUNX1 binding intensity: 885
//
seq-text: CTCTTCCTGCCTGTCCGTGGCTGGTGTGGTTTGCGT
RUNX1 binding intensity: 958
//
seq-text: CCATTTCCGCGCACGTCTGCAGATGCGGTAGTCGAT
RUNX1 binding intensity: 853
//
seq-text: GCGCCCTCCAGGAAACGCCGCGGTTTACTGTCTGCC
RUNX1 binding intensity: 912
//
seq-text: CCTTGCTACAGGATGTTTTGACCACGAGCCCAGGAG
RUNX1 binding intensity: 1090
//
seq-text: GAGCTAGCCACTTCCTCCCCCACAACTACACCCAGG
RUNX1 binding intensity: 976
//
seq-text: CACTCCCCGCATCCGGTCTGCGGCGCGCTCGGGGCC
RUNX1 binding intensity: 912
//
seq-text: GAGAACTTCCGGTGCGCTCCCCGGGACTGCGGTCCC
RUNX1 binding intensity: 729
//
seq-text: TGCTCAAATGCAGGATGTGGTCTGAGAGTTTCTCCT
RUNX1 binding intensity: 693
//
seq-text: GTGGCCTCTTCAACAGGAAACCACAATATTTTTGTT
RUNX1 binding intensity: 1410
//
seq-text: GGCACCGGAAGTAGAGCTGCCCCTAGTTGCGGCAGT
RUNX1 binding intensity: 767
//
seq-text: ACAGATACAGCCTCAGGAAGTGGTTTTGTATCTCTG
RUNX1 binding intensity: 682
//
seq-text: CCTTTCCGCGAGACCTTCCGCGGTTATCCAGCGAGT
RUNX1 binding intensity: 1160
//
seq-text: TCCCACATCCTGTGCTCGTGCAGTGGTTAGGCTCAA
RUNX1 binding intensity: 793
//
seq-text: CACTGATTAAGAGGAAGTGTGTGTGGTTATTACCGT
RUNX1 binding intensity: 804
//
seq-text: CCGCTTCCGGCCTTCGCCCGGCTTACCCGCGTCGCA
RUNX1 binding intensity: 1070
//
seq-text: TGTTTTCGCTCTTCCTGGCCTTGCGGGCAGCCAGGA
RUNX1 binding intensity: 1060
//
seq-text: GCCCAGGCAGGAAGCCAGGCGCCCACAGGTTGGCAG
RUNX1 binding intensity: 643
//
seq-text: GGCAGCCGGCTTCCGGCTGTGGGTGGTGCGGGGGAC
RUNX1 binding intensity: 676
//
seq-text: GCTAACGGAACCAGCACGCGGCCACCGCAGGAACCT
RUNX1 binding intensity: 853
//
seq-text: CGGCCTCTTCCGGTCACCTGGCCCGTCGCGGTCCCG
RUNX1 binding intensity: 1040
//
seq-text: GCAGAACCAGAAACAGGATGTGGGTTCCCCTTTAAG
RUNX1 binding intensity: 826
//
seq-text: GAAAACTAAGCAGGATGTGGTCTCGGCTGGAGCCTG
RUNX1 binding intensity: 657
//
seq-text: TAAGGATGTGTGGCTTCCAGATCAAAAACCGCAAAA
RUNX1 binding intensity: 7590
//
seq-text: CGTTTCCTGTCTGGGACTGCGCCCACGCGGTCACGT
RUNX1 binding intensity: 966
//
seq-text: GACCCGGCCCGCCCCTTCCGGCCGCAGCGCGGGGCA
RUNX1 binding intensity: 952
//
seq-text: CAGGGTGGAAACAGGAAGAGAAACCACACTTAACCT
RUNX1 binding intensity: 845
//
seq-text: GTTGGGTGGGGAAGTGGATGGTGGTTTTGGCAGAGG
RUNX1 binding intensity: 960
//
seq-text: CATTTACAGAAAAGGAAACCGCAAGTTTGAGCAAGT
RUNX1 binding intensity: 25200
//
seq-text: TTTACAGGAAATATCCAGAACAGGTAAACCCACAGA
RUNX1 binding intensity: 796
//
seq-text: GGACTTCCTGAAGCCAGATCGGTTTACCACAGTCAG
RUNX1 binding intensity: 634
//
seq-text: TGCTTCTGAGGAAGTGATCTGTGGTCAAAGAAAGAA
RUNX1 binding intensity: 891
//
seq-text: ACCCAGTAGGGGCCAGGATGTGGTGAAAAGAGAATT
RUNX1 binding intensity: 728
//
seq-text: CTCTGCTTCCTGTCTTTGAATGCCTCTGTGGTTTTC
RUNX1 binding intensity: 2080
//
seq-text: CAGCTTTCCGGCCTGCAGCACAGGCAATGTGGTTTT
RUNX1 binding intensity: 1020
//
seq-text: GGAAAAGGAAGTGGCTTTGACTTGCGGGCAGGGAGA
RUNX1 binding intensity: 733
//
seq-text: TCCCCCACTTCCTGGCAGCAGCAGTGTGGTGAGGAG
RUNX1 binding intensity: 879
//
seq-text: CCGTGGAAGGAAACGCTGCCAACCGCAACAGAAATG
RUNX1 binding intensity: 1700
//
seq-text: CGGCGCCTTCCGCAGAGGGACTGCGGCTTTCTGCGC
RUNX1 binding intensity: 946
//
seq-text: TGCGCCGCGGAACCCGGAAGTGGTCACGGAGCTCGG
RUNX1 binding intensity: 766
//
seq-text: TGAAACCCAGCAGGATGTGGGTTAACGGCAGGGGAG
RUNX1 binding intensity: 733
//
seq-text: GAAAGCTGCACTATTTCCTGAGGTTAGAGGTTTAAA
RUNX1 binding intensity: 815
//
seq-text: CTCAGCTCCGCGGAAGTTGCGGTAAGTGGAGCTTTG
RUNX1 binding intensity: 2210
//
seq-text: ACCACACTTCCCAGGAGTCTCTGCGGCCGCGCGGAG
RUNX1 binding intensity: 938
//
seq-text: CTTGTGAAATGTATCCTGTGGTTGCCGGCTGAAGTG
RUNX1 binding intensity: 848
